The entries below come with measured pIC50 values attached.
- Method notes: Inhibition of NF-kappaB activity in human HeLa cells by SEAP reporter assay
- Assay type: cell-based
The meaning of pIC50 here: minus log10 of the concentration in molar units.

Answered examples (4):
1) CC(=O)OC(C)(C)/C=C/C(=O)[C@](C)(O)[C@H]1[C@H](O)C[C@@]2(C)[C@@H]3CC=C4[C@H](C[C@H](O)C(=O)C4(C)C)[C@]3(C)C(=O)C[C@]12C: 7.21
2) CC1=CC(=O)CC(C)(C)[C@@]1(O)/C=C/[C@@H](C)O: 4.91
3) CC1=C(O)C(=O)C=C2C1=CC=C1[C@@]2(C)CC[C@@]2(C)[C@@H]3C[C@](C)(C(=O)O)CC[C@]3(C)CC[C@]12C: 6.82
4) COc1cc(/C=C/c2ccc(OC)c(O)c2)oc(=O)c1: 6.40

Would you kindly look at the next entry?
Query string: Returns the measured pIC50 for the input molecule. Input: COc1cc(O)cc2c1/C(=C\c1ccc(O)cc1)C(=O)O2
Result string: 6.25

----------
- Test system: Hep 3B2
- Method notes: Inhibition of hypoxia-induced VEGF protein secretion in human Hep3B cells after 16 hrs by ELISA
- Format: functional, cell-based
Readout: pIC50
The meaning of pIC50 here: minus log10 of the concentration in molar units.

1) CC1=CC(=O)CC(C)(C)[C@@]1(O)/C=C/[C@@H](C)O [BLUMENOL A]: 4.58
2) COc1cc(O)cc2c1/C(=C\c1ccc(O)cc1)C(=O)O2: 6.03
3) CC(=O)OC(C)(C)/C=C/C(=O)[C@](C)(O)[C@H]1[C@H](O)C[C@@]2(C)[C@@H]3CC=C4[C@H](C[C@H](O)C(=O)C4(C)C)[C@]3(C)C(=O)C[C@]12C [CUCURBITACIN B]: 6.51

Would you kindly look at the next entry?
Query string: Test system Hep 3B2; read-out pIC50; what value for COc1cc(/C=C/c2ccc(OC)c(O)c2)oc(=O)c1 ?
Result string: 5.98

----------
- Measured target: Hypoxia-inducible factor 1-alpha (Homo sapiens, UniProt Q16665)
- Sequence (Q16665 whole entry): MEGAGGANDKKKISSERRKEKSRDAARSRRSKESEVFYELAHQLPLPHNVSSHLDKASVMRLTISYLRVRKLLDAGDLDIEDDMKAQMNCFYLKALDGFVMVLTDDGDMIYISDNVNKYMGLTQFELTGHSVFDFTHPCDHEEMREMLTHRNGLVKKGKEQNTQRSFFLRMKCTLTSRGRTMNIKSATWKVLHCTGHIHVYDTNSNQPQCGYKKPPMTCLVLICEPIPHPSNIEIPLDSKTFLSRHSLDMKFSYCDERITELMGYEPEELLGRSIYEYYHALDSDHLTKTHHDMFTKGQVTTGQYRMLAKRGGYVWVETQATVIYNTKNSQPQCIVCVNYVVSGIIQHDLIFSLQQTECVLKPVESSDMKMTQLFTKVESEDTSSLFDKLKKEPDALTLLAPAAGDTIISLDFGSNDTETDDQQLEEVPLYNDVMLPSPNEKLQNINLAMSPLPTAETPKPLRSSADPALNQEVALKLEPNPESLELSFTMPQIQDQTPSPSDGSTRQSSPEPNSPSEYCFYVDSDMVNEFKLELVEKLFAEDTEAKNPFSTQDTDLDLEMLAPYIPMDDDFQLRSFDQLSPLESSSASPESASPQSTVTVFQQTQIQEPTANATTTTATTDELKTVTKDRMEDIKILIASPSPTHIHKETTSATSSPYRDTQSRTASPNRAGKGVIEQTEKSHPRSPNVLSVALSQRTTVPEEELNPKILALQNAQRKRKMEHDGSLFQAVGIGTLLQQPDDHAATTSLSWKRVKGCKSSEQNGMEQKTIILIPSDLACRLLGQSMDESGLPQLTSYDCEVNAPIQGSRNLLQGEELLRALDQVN
- Method notes: Inhibition of hypoxia-induced HIF1alpha protein accumulation in human Hep3B cells treated for 30 mins measured after 12 hrs by Western blot analysis
Readout: pIC50
The meaning of pIC50 here: minus log10 of the concentration in molar units.

1. CC(=O)OC(C)(C)/C=C/C(=O)[C@](C)(O)[C@H]1[C@H](O)C[C@@]2(C)[C@@H]3CC=C4[C@@H](C[C@H](O)C(=O)C4(C)C)[C@]3(C)C(=O)C[C@]12C [CUCURBITACIN B]: 6.57
2. COc1cc(O)cc2c1/C(=C\c1ccc(O)cc1)C(=O)O2: 6.16
3. CC1=CC(=O)CC(C)(C)[C@@]1(O)/C=C/[C@@H](C)O [BLUMENOL A]: 4.80

Query string: Returns the measured pIC50 for the input compound. Input: COc1cc(/C=C/c2ccc(OC)c(O)c2)oc(=O)c1
Result string: 6.09

----------
- Method notes: Inhibition of hypoxia-induced HIF1alpha protein accumulation in human Hep3B cells treated for 30 mins measured after 12 hrs by Western blot analysis
- Measurement context: hep 3b2
Readout: pIC50
The meaning of pIC50 here: minus log10 of the concentration in molar units.

Query string: Returns the measured pIC50 for the input molecule. Input: CO[C@H]1/C=C\C=C(/C)C(=O)NC2=CC(=O)C(NCCN(C)C)=C(C[C@@H](C)C[C@H](OC)[C@H](O)[C@@H](C)/C=C(\C)[C@@H]1OC(N)=O)C2=O
Result string: 7.24
